The reported numbers originate from PubChem BioAssay AID624352.

Assay: HIF-2a reporter inhibitors, primary screen, luminescence, 786-0 RCC cells (AID 624352)
Conditions: 786-0 RCC cells HIF-2a reporter, luciferase luminescence, overnight; at 18.8 µM; stronger effect = higher value
Screen size: about 360,000 compounds; about 2,600 (0.72%) were called active. Only a selection was taken, and actives are over-represented in it overall.
Kind request: treat 10% as inclusive, so inhibition at 10% or higher is y, anything lower is n.

Record excerpt, results attached:
# compound, assignedCategory
measured = [
    ("Cc1nnnn1/C(=C\\c1ccccc1)C(=O)OCC(=O)N1CC2(C)CC1CC(C)(C)C2 (centres undefined)", "y"),
    ("COc1ccc(NC(=O)CN2C(=O)COc3ccc(S(=O)(=O)N4CCOCC4)cc32)cc1", "n"),
    ("O=C(CC12CC3CC(CC(C3)C1)C2)Nc1ccc2c(c1)COC2=O", "n"),
    ("Cc1ccc(CCCOC(=O)C[N+]2(C)CCCCC2)cc1", "n"),
    ("Cc1ccc(C(=O)N2CC(=O)Nc3ccccc32)o1", "y"),
]

Req: Can NC(=O)c1cc(S(=O)(=O)N2CCCC2)ccc1OCc1ccc(F)cc1 be said to have inhibition at or above 10%?
Resp: y

Req: // repeat for O=C(Nc1ccc(OCC(=O)N2CCOCC2)cc1)c1cc(F)c(F)cc1Cl and report
Resp: n

Req: Try this compound next: CC1=CC(C)(C)Nc2ccc(OC(=O)CN3C(=O)C4CCCCC4C3=O)cc21 (centres undefined)
Resp: y

* * *

Assay: HIF-2a reporter inhibitors, primary screen, luminescence, 786-0 RCC cells (AID 624352)
Conditions: 786-0 RCC cells HIF-2a reporter, luciferase luminescence, overnight; at 18.8 µM
The whole screen tested about 360,000 compounds, of which about 2,600 (0.72%) were called active.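 The calls were made as follows: active = inhibition of the luminescence signal of 40% or more relative to plate controls, in a single-dose primary screen at 18.75 µM; inactive = the rest.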 What follows is part of a selection rich in actives, with near analogues and random picks from the rest.
API: response.call in 1 = active, -1 = inactive

# compound, assignedCategory
data = [
    ("CC1(C(=O)NS(=O)(=O)c2cccc(OC(F)F)c2)CCN1C(=O)COc1ccc(Cl)cc1 (stereo unspecified)", -1),
    ("Cc1cccc2sc(N(CCCN(C)C)C(=O)CCS(=O)(=O)c3ccccc3)nc12", 1),
    ("O=C(CNC(=O)c1cc(S(=O)(=O)N2CCOCC2)ccc1N1CCCC1)Nc1ccc(F)c(F)c1", -1),
    ("CC(C)(C)C(=O)NC(NC(=S)Nc1ccc(S(N)(=O)=O)cc1)C(Cl)(Cl)Cl (stereo unspecified)", -1),
    ("CC(CC(=O)O)CC(=O)NNC(=O)c1cccc(Br)c1 (stereo unspecified)", -1),
]

Req: Tell me the recorded outcome of this test for O=C(CCCN1C(=O)/C(=C\c2ccco2)SC1=S)Nc1cccc2ccccc12 .
Resp: 1

Req: Next compound up: Cc1ccc(NC(=O)COC(=O)CN2CCCCCC2=O)c(C)c1
Resp: -1

Req: For CN(C(=O)CN1C(=O)/C(=C/c2ccc(Cl)cc2)SC1=S)C1CCS(=O)(=O)C1 (stereo unspecified) then?
Resp: -1

* * *

Assay: HIF-2a reporter inhibitors, primary screen, luminescence, 786-0 RCC cells (AID 624352)
Details: 786-0 RCC cells HIF-2a reporter, luciferase luminescence, overnight; at 18.8 µM; stronger effect = higher value
Among all 360,000 compounds or so, about 2,600 (0.72%) were called active. Many of the other results were omitted from the sample, so actives are more common in it than they were.
resultType: inhibition (%)
Numbers only, in %.

Worked cases, inhibition given:
# compound, units, inhibition
records = [
    ("C[C@H](O)[C@@H]1C(=O)N2CCc3ccc(N4CCOCC4)cc3[C@@H]2C[C@@H]1N(C)C(=O)C(C)(C)C", "%", -9.89),
    ("O=C(Oc1ccc(-c2nc(-c3ccccn3)no2)cc1)c1ccccc1", "%", 42.3),
    ("O=C(O)c1ccccc1OCc1ccccc1Cl", "%", 10),
    ("COC(=O)c1ccc(OC(=O)c2cnccn2)cc1", "%", 17.4),
    ("OCCC#Cc1ccc(N2C(c3ccsc3)=Cc3ccc(F)cc3C2c2c[nH]c3ccccc23)cc1 (configuration not stated)", "%", -21.5),
]

Please look at the items below and tell me inhibition for each one, in order.
1. N#C/C(=C(\O)CCl)c1nnc2n1CCCCC2
2. CN(Cc1cccs1)C(=O)CN1C(=O)c2ccccc2S1(=O)=O

Resp:
[-5.99, -66.1]
